Reference source: ChEMBL document CHEMBL1123428

# Organism: Rattus norvegicus
# Experiment Notes: Compound was evaluated for its activity at solubilized receptor (CHAPS/salt-solubilized preparation) from rat frontal cortex
# Format: functional, organism-based
pKi: −log10 of the molar value.

| Substance | pKi |
| --- | --- |
| (-)-BUTACLAMOL | 4.86 |

====

# System Name: D(2) dopamine receptor (Rattus norvegicus, UniProt P61169)
# Sequence (P61169 whole entry): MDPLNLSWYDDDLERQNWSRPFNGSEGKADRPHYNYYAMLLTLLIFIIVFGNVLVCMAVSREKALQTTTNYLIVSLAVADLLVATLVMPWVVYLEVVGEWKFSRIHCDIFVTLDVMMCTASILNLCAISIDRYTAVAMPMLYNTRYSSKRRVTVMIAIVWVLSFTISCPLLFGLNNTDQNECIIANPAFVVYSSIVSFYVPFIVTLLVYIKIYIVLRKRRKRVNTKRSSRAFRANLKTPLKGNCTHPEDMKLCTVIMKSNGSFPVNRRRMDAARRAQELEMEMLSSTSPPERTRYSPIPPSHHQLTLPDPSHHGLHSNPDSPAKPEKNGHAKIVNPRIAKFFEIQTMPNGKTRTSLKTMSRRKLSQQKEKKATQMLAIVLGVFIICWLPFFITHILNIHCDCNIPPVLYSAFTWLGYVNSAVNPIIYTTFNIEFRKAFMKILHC
# Experiment Notes: Compound was evaluated for binding activity against [3H]haloperidol as radioligand for Dopamine receptor D2

| Structure String | Unit Info | IC50 |
| --- | --- | --- |
| Nc1ccc2c(=O)n(CCN3CCC(C(=O)c4ccc(F)cc4)CC3)c(=O)[nH]c2c1 | nM | 417 |

====

# Experiment Notes: Binding affinity for membrane-bound 5-HT-S2 receptor
# Set-up: species or system Rattus norvegicus
pKd: −log10 of the molar value.

| Structure String | pKd |
| --- | --- |
| Nc1ccc2c(=O)n(CCN3CCC(C(=O)c4ccc(F)cc4)CC3)c(=O)[nH]c2c1 | 9.46 |

====

# System Name: UniProtKB P31390
# Sequence (P31390 whole entry): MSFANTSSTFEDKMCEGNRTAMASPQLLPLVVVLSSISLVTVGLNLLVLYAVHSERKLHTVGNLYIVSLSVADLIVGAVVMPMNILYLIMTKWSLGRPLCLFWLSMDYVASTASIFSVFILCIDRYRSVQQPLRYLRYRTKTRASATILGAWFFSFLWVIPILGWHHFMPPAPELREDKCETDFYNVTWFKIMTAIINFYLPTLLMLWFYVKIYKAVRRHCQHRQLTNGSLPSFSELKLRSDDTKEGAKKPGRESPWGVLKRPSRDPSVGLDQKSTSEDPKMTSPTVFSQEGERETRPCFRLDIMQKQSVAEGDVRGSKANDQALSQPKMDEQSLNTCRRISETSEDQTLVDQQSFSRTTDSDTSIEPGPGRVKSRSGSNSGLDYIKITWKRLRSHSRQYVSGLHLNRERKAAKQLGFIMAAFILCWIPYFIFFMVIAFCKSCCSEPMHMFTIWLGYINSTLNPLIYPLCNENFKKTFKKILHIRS
pKi: −log10 of the molar value.
Measured Metric: pKi

| Structure String | Reported Value |
| --- | --- |
| Nc1ccc2c(=O)n(CCN3CCC(C(=O)c4ccc(F)cc4)CC3)c(=O)[nH]c2c1 | 8.91 |

====

# Species on record: Rattus norvegicus
# Experiment Notes: Compound was evaluated for its activity at solubilized receptor (CHAPS/salt-solubilized preparation) from rat frontal cortex
# Assay type: functional, organism-based
pKi: −log10 of the molar value.
Label 1 when pKi is at or above 5; otherwise label -1.

| Molecule | Class Assignment |
| --- | --- |
| COc1cccc(OC)c1OCCNCC1COc2ccccc2O1 (stereo unspecified) | 1 |
| Cc1nc2sccn2c(=O)c1CCN1CCC(=C(c2ccc(F)cc2)c2ccc(F)cc2)CC1 [RITANSERIN] | 1 |
| CN(C)CCc1c[nH]c2ccc(O)cc12 [BUFOTENINE] | 1 |
| NC(=O)C1(N2CCCCC2)CCN(CCCC(=O)c2ccc(F)cc2)CC1 [PIPAMPERONE] | 1 |
| CN1CCN2c3ccccc3Cc3ccccc3C2C1 (stereo unspecified) [MIANSERIN] | 1 |
| O=c1[nH]c2ccccc2n1CCCN1CCC(n2c(=O)[nH]c3cc(Cl)ccc32)CC1 [DOMPERIDONE] | 1 |
| NCCc1c[nH]c2ccc(O)cc12 [SEROTONIN] | -1 |
| Cc1nc2ccccn2c(=O)c1CCN1CCC(C(=O)c2ccc(F)cc2)CC1 [PIRENPERONE] | 1 |
| O=C(c1ccc(F)cc1)C1CCN(CCn2c(=O)[nH]c3ccccc3c2=O)CC1 [KETANSERIN] | 1 |
| COc1cc2nc(N3CCN(C(=O)c4ccco4)CC3)nc(N)c2cc1OC [PRAZOSIN] | -1 |

====

# Species on record: Rattus norvegicus
# Experiment Notes: Compound was evaluated for its activity at solubilized receptor (CHAPS/salt-solubilized preparation) from rat frontal cortex
# Assay type: functional, organism-based
# Test Conditions: Rattus norvegicus, Frontal cortex
pIC50: −log10 of the molar value.
Measured Metric: pIC50

| Molecule | Reported Value |
| --- | --- |
| CN(C)CCc1c[nH]c2ccc(O)cc12 | 4.90 |
| NC(=O)C1(N2CCCCC2)CCN(CCCC(=O)c2ccc(F)cc2)CC1 | 7.72 |
| NCCc1c[nH]c2ccc(O)cc12 | 4.55 |
| COc1cc2nc(N3CCN(C(=O)c4ccco4)CC3)nc(N)c2cc1OC | 4.40 |
| COc1ccc(CN(CCN(C)C)c2ccccn2)cc1 | 4.70 |
| CN1CCN2c3ccccc3Cc3ccccc3C2C1 (stereo unspecified) | 7.57 |
| O=c1[nH]c2ccccc2n1CCCN1CCC(n2c(=O)[nH]c3cc(Cl)ccc32)CC1 | 5.70 |
| Cc1nc2ccccn2c(=O)c1CCN1CCC(C(=O)c2ccc(F)cc2)CC1 | 8.15 |
| O=C(c1ccc(F)cc1)C1CCN(CCn2c(=O)[nH]c3ccccc3c2=O)CC1 | 8.10 |
| Cc1nc2sccn2c(=O)c1CCN1CCC(=C(c2ccc(F)cc2)c2ccc(F)cc2)CC1 | 7.85 |
| COc1cccc(OC)c1OCCNCC1COc2ccccc2O1 (stereo unspecified) | 5.11 |

====

# Species on record: Rattus norvegicus
# Experiment Notes: Compound was evaluated for its activity at membrane-bound receptor (M+L+P fraction) from rat frontal cortex
# Assay type: functional, organism-based
pKi: −log10 of the molar value.

| Substance | pKi |
| --- | --- |
| (-)-BUTACLAMOL | 5.49 |

====

# Species: Rattus norvegicus
# Experiment Notes: Compound was evaluated for its activity at membrane-bound receptor (M+L+P fraction) from rat frontal cortex
# Format: functional, organism-based
# 1 (yes) = Ki below 700 nM (exclusive); 0 (no) = Ki at/above 700 nM

| Molecule | Class Assignment |
| --- | --- |
| CN1CCN2c3ccccc3Cc3ccccc3C2C1 (stereo unspecified) | 1 (yes) |
| Cc1nc2ccccn2c(=O)c1CCN1CCC(C(=O)c2ccc(F)cc2)CC1 | 1 (yes) |
| O=C(c1ccc(F)cc1)C1CCN(CCn2c(=O)[nH]c3ccccc3c2=O)CC1 | 1 (yes) |
| Cc1nc2sccn2c(=O)c1CCN1CCC(=C(c2ccc(F)cc2)c2ccc(F)cc2)CC1 | 1 (yes) |
| NCCc1c[nH]c2ccc(O)cc12 | 0 (no) |
| COc1ccc(CN(CCN(C)C)c2ccccn2)cc1 | 0 (no) |
| NC(=O)C1(N2CCCCC2)CCN(CCCC(=O)c2ccc(F)cc2)CC1 | 1 (yes) |
| COc1cc2nc(N3CCN(C(=O)c4ccco4)CC3)nc(N)c2cc1OC | 0 (no) |
| O=c1[nH]c2ccccc2n1CCCN1CCC(n2c(=O)[nH]c3cc(Cl)ccc32)CC1 | 1 (yes) |
| CN(C)CCc1c[nH]c2ccc(O)cc12 | 1 (yes) |

====

# System Name: D(2) dopamine receptor (Rattus norvegicus, UniProt P61169)
# Experiment Notes: Compound was evaluated for binding activity against [3H]haloperidol as radioligand for Dopamine receptor D2
pKi: −log10 of the molar value.
Measured Metric: pKi

| Structure String | Reported Value |
| --- | --- |
| Nc1ccc2c(=O)n(CCN3CCC(C(=O)c4ccc(F)cc4)CC3)c(=O)[nH]c2c1 | 6.79 |

====

# Experiment Notes: Compound was evaluated at membrane-bound receptor (M+L+P fraction) from rat frontal cortex
# Type: tissue-based
pKi: −log10 of the molar value.

| Structure String | pKi |
| --- | --- |
| Nc1ccc2c(=O)n(CCN3CCC(C(=O)c4ccc(F)cc4)CC3)c(=O)[nH]c2c1 | 9.44 |

====

# Experiment Notes: Binding affinity for detergent solubilized 5-HT-S2 receptor
# Parameters: species or system Rattus norvegicus
pKd: −log10 of the molar value.
Measured Metric: pKd

| Structure String | Reported Value |
| --- | --- |
| Nc1ccc2c(=O)n(CCN3CCC(C(=O)c4ccc(F)cc4)CC3)c(=O)[nH]c2c1 | 8.69 |
